Kindly supply the reported pIC50 values for the records listed here.
- target entity: UniProt:Q92633
- protocol details: Antagonist activity at human LPA1 receptor expressed in CHO cells assessed as reduction in LPA-induced intracellular Ca2+ concentration pretreated with compound followed by LPA addition by fluorescence assay
Keep it numeric: pIC50 is minus log10 of the concentration in mol/L.

[ask] I have this compound here, "COc1cc(C(=O)N(CCCc2ccccc2)Cc2ccc(Oc3ccc(Cl)cc3C(=O)O)cc2)cc(OC)c1C" , and I need its recorded pIC50.
[reply] 8.46

[ask] Can you check "COc1cc(C(=O)N(CCCCc2ccccc2)Cc2ccc(OCC(=O)O)cc2)cc(OC)c1C" next?
[reply] 5.18

[ask] Can you check "COc1cc(C(=O)N(CCCc2ccccc2)Cc2ccc(Oc3ccc(C)cc3C(=O)O)cc2)cc(OC)c1C" next?
[reply] 7.38

[ask] Can you check "COc1cc(C(=O)N(CCCc2ccccc2)Cc2ccc(Oc3ccccc3C(=O)O)cc2)cc(OC)c1C" next?
[reply] 7.15

[ask] Can you check "Cc1cccc(C(=O)N(CCCc2ccccc2)Cc2ccc(-c3ccccc3C(=O)O)cc2)c1" next?
[reply] 5.77

[ask] Can you check "COc1cc(C(=O)N(CCCOc2cccc(C(=O)O)c2)CCCc2ccccc2)cc(OC)c1C" next?
[reply] 6.17

[ask] Can you check "O=C(O)c1ccccc1-c1ccc(CN(CCCc2ccccc2)C(=O)c2cccc(F)c2)cc1" next?
[reply] 5.26

[ask] Can you check "COc1cc(C(=O)N(CCCc2ccccc2)Cc2ccc(CC(=O)O)cc2)cc(OC)c1C" next?
[reply] 6.80

[ask] Can you check "COc1cc(OC)cc(C(=O)N(CCCc2ccccc2)Cc2ccc(-c3ccccc3CC(=O)O)cc2)c1" next?
[reply] 6.68

[ask] Can you check "COc1cc(OC)cc(C(=O)N(CCCc2ccccc2)Cc2ccc(-c3ccccc3C(=O)O)cc2)c1" next?
[reply] 6.59

[ask] Can you check "COc1cc(C(=O)N(CCCc2cccc(F)c2)Cc2ccc(CC(=O)O)cc2)cc(OC)c1C" next?
[reply] 6.72

[ask] Can you check "COc1ccc(C(=O)N(CCCc2ccccc2)Cc2ccc(-c3ccccc3C(=O)O)cc2)cc1" next?
[reply] 5.36

[ask] Can you check "COc1cccc(C(=O)N(CCCc2ccccc2)Cc2ccc(-c3ccccc3C(=O)O)cc2)c1" next?
[reply] 5.89

[ask] Can you check "COc1cc(OC)cc(C(=O)N(CCCc2ccccc2)Cc2ccc(Oc3ccccc3C(=O)O)cc2)c1" next?
[reply] 7.05

[ask] Can you check "COc1cc(C(=O)N(CCCc2ccccc2)Cc2ccc(Oc3cccc(C)c3C(=O)O)cc2)cc(OC)c1C" next?
[reply] 7.00

[ask] Can you check "COc1cc(C(=O)N(CCCc2ccccc2)Cc2ccc(-c3ccccc3C(=O)O)cc2)cc(OC)c1OC" next?
[reply] 6.41

[ask] Can you check "COc1cc(C(=O)N(CCCc2ccccc2)Cc2ccc(Oc3cc(Cl)ccc3C(=O)O)cc2)cc(OC)c1C" next?
[reply] 8.23

###

- target entity: Lysophosphatidic acid receptor 1 (Homo sapiens)
- protocol details: Antagonist activity at human LPA1 receptor expressed in CHO cells assessed as reduction in LPA-induced intracellular Ca2+ concentration pretreated with compound followed by LPA addition by fluorescence assay
test readout: pIC50
Keep it numeric: pIC50 is minus log10 of the concentration in mol/L.

[ask] I have this compound here, "O=C(O)c1ccccc1-c1ccc(CN(CCCc2ccccc2)C(=O)c2ccccc2)cc1" , and I need its recorded pIC50.
[reply] 4.92

[ask] Can you check "COc1cc(OC)cc(C(=O)N(CCCc2ccccc2)Cc2ccc(Oc3cccc(C(=O)O)c3)cc2)c1" next?
[reply] 6.85

[ask] Can you check "COc1cc(C(=O)N(CCCc2ccccc2F)Cc2ccc(CC(=O)O)cc2)cc(OC)c1C" next?
[reply] 6.66

###

Kindly supply the reported solubility values for the records listed here.
- protocol details: Solubility of the compound in buffer at pH 6.8
- Type: physicochemical
# number only, unit µM dropped from output

[ask] I have this molecule here, "COc1cc(C(=O)N(CCCc2ccccc2)Cc2ccc(OCC(=O)O)cc2)cc(OC)c1C" , and I need its recorded solubility.
[reply] 84

[ask] Can you check "COc1cc(C(=O)N(CCCc2ccccc2)Cc2ccc(Oc3ccc(Cl)cc3C(=O)O)cc2)cc(OC)c1C" next?
[reply] 69

[ask] Can you check "COc1cc(C(=O)N(CCCc2ccccc2)Cc2ccc(CC(=O)O)cc2)cc(OC)c1C" next?
[reply] 73

###

- protocol details: Apparent permeability in human Caco2 cells
- Type: ADME, cell-based
- recorded conditions: Caco-2
test readout: Papp (×10⁻⁶ cm/s)
# number only, unit ×10⁻⁶ cm/s dropped from output

[ask] I have this molecule here, "COc1cc(C(=O)N(CCCc2ccccc2)Cc2ccc(OCC(=O)O)cc2)cc(OC)c1C" , and I need its recorded Papp.
[reply] 3.2

[ask] Can you check "COc1cc(C(=O)N(CCCc2ccccc2)Cc2ccc(CC(=O)O)cc2)cc(OC)c1C" next?
[reply] 15.9

###

- protocol details: Half life in rat at 3 mg/kg, iv
- Type: ADME, organism-based
- recorded conditions: in vivo
test readout: half-life

[ask] I have this compound here, "COc1cc(C(=O)N(CCCc2ccccc2)Cc2ccc(CC(=O)O)cc2)cc(OC)c1C" , and I need its recorded half-life.
[reply] 18 min

###

- protocol details: Half life in rat liver microsomes at 0.5 mg/ml
- Assay type: ADME
Kindly supply the reported half-life values for the records listed here.
# number only, unit min dropped from output

[ask] I have this compound here, "COc1cc(C(=O)N(CCCc2ccccc2)Cc2ccc(OCC(=O)O)cc2)cc(OC)c1C" , and I need its recorded half-life.
[reply] 24

[ask] Can you check "COc1cc(C(=O)N(CCCc2ccccc2)Cc2ccc(CC(=O)O)cc2)cc(OC)c1C" next?
[reply] 29

###

- target entity: Lysophosphatidic acid receptor 1 (Homo sapiens, UniProt Q92633)
- Sequence (Q92633 whole entry): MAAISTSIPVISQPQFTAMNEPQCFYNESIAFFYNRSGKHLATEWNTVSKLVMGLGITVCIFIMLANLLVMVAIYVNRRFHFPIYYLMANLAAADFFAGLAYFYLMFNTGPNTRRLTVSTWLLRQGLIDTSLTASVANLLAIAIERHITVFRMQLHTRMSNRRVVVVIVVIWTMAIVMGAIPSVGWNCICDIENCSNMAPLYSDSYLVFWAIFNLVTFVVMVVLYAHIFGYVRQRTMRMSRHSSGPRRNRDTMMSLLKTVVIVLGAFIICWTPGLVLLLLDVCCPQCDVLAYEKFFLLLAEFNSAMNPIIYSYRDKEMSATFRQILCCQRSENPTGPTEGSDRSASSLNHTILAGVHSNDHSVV
- protocol details: Antagonist activity at human LPA1 receptor expressed in CHO cells assessed as reduction in LPA-induced intracellular Ca2+ concentration pretreated with compound followed by LPA addition by fluorescence assay
test readout: IC50 (nM)
# number only, unit nM dropped from output

[ask] I have this compound here, "COc1cc(C(=O)N(CCCc2ccccc2)Cc2ccc(Oc3ccccc3C(=O)O)cc2)cc(OC)c1OC" , and I need its recorded IC50.
[reply] 130

[ask] Can you check "Cc1cc(C)cc(C(=O)N(CCCc2ccccc2)Cc2ccc(-c3ccccc3C(=O)O)cc2)c1" next?
[reply] 260

[ask] Can you check "COc1cc(C(=O)N(CCCc2ccccc2)Cc2ccc(OCC(=O)O)cc2)cc(OC)c1C" next?
[reply] 100

[ask] Can you check "COc1cc(C(=O)N(CCCc2ccccc2)Cc2ccc(Oc3cc(C)ccc3C(=O)O)cc2)cc(OC)c1C" next?
[reply] 15

[ask] Can you check "COc1ccccc1C(=O)N(CCCc1ccccc1)Cc1ccc(-c2ccccc2C(=O)O)cc1" next?
[reply] 3300

[ask] Can you check "COc1ccc(C(=O)N(CCCc2ccccc2)Cc2ccc(-c3ccccc3C(=O)O)cc2)cc1OC" next?
[reply] 3700

[ask] Can you check "COc1cc(C(=O)N(CCCc2ccccc2)Cc2ccc(Oc3c(C)cccc3C(=O)O)cc2)cc(OC)c1C" next?
[reply] 140

[ask] Can you check "COc1cc(OC)cc(C(=O)N(CCCc2ccccc2)Cc2ccc(-c3ccccc3CCC(=O)O)cc2)c1" next?
[reply] 230

Reference source for all entries: ChEMBL document CHEMBL3856289
